Molecular target: Neuronal acetylcholine receptor subunit alpha-4 (Homo sapiens); further: assay procedure not described here
Sequence (P43681 whole entry): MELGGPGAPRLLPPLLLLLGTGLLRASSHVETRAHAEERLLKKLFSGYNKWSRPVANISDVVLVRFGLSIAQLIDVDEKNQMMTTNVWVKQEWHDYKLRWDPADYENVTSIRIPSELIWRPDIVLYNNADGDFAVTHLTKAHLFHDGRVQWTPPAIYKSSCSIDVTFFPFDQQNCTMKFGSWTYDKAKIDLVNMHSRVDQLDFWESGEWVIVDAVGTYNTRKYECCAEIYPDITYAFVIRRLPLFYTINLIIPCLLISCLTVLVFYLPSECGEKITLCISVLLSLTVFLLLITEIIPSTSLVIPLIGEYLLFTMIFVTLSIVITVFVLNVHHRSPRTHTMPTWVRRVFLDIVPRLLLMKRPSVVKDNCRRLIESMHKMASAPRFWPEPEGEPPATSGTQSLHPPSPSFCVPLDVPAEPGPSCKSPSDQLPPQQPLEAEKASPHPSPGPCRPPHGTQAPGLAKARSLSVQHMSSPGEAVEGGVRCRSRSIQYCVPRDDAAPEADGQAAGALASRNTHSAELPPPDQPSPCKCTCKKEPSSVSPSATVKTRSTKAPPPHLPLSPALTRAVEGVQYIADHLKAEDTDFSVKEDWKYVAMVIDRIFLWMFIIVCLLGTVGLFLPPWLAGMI

[
  {
    "COMPOUND": "CNC[C@H](O)c1ccc(O)c(O)c1 [EPINEPHRINE]",
    "AC50": "> 30 µM"
  },
  {
    "COMPOUND": "Cc1ccc(C)c(OCCCC(C)(C)C(=O)O)c1",
    "AC50": "> 10 µM"
  },
  {
    "COMPOUND": "CCCCCCCN(CC)CCCC(O)c1ccc(NS(C)(=O)=O)cc1 (stereo not given) [IBUTILIDE]",
    "AC50": "> 30 µM"
  },
  {
    "COMPOUND": "O=C1Cc2cc(CCN3CCN(c4nsc5ccccc45)CC3)c(Cl)cc2N1",
    "AC50": "> 10 µM"
  },
  {
    "COMPOUND": "CCOC(=O)c1ncn2c1CN(C)C(=O)c1cc(F)ccc1-2",
    "AC50": "> 30 µM"
  },
  {
    "COMPOUND": "COc1ccc(CN2CCN(C(c3ccc(F)cc3)c3ccc(F)cc3)CC2)c(OC)c1OC",
    "AC50": "> 30 µM"
  },
  {
    "COMPOUND": "Cc1cc(=O)n(-c2ccccc2)n1C [ANTIPYRINE]",
    "AC50": "> 10 µM"
  },
  {
    "COMPOUND": "C[N+]1(C)CCC(=C(c2ccccc2)c2ccccc2)CC1",
    "AC50": "16.2 µM"
  },
  {
    "COMPOUND": "CC(CN1c2ccccc2Sc2ccccc21)N(C)C (stereo not given)",
    "AC50": "> 10 µM"
  },
  {
    "COMPOUND": "Oc1ccc(CCNCCCCCCNCCc2ccccc2)cc1O",
    "AC50": "> 30 µM"
  }
]

---

AC50, Progesterone receptor (Homo sapiens, UniProt P06401): measured values

[
  {
    "COMPOUND": "Cc1cc(=O)[nH]c(=S)[nH]1",
    "TARGET DESC": "Progesterone receptor (Homo sapiens, UniProt P06401)",
    "AC50": "> 30 µM"
  },
  {
    "COMPOUND": "Cc1cc2c(cc1S(N)(=O)=O)S(=O)(=O)CCC2",
    "TARGET DESC": "Progesterone receptor (Homo sapiens, UniProt P06401)",
    "AC50": "> 30 µM"
  },
  {
    "COMPOUND": "C=CC(=O)Nc1cccc(Oc2nc(Nc3ccc(N4CCN(C)CC4)cc3)nc3ccsc23)c1",
    "TARGET DESC": "Progesterone receptor (Homo sapiens, UniProt P06401)",
    "AC50": "> 30 µM"
  },
  {
    "COMPOUND": "C[C@H](N[C@@H](CCc1ccccc1)C(=O)O)C(=O)N1Cc2ccccc2C[C@H]1C(=O)O",
    "TARGET DESC": "Progesterone receptor (Homo sapiens, UniProt P06401)",
    "AC50": "> 30 µM"
  },
  {
    "COMPOUND": "CC(O)(CS(=O)(=O)c1ccc(F)cc1)C(=O)Nc1ccc(C#N)c(C(F)(F)F)c1 (stereo not given) [BICALUTAMIDE]",
    "TARGET DESC": "Progesterone receptor (Homo sapiens, UniProt P06401)",
    "AC50": "0.46 µM"
  },
  {
    "COMPOUND": "C[C@@H]1C[C@H]2[C@@H]3C[C@H](F)C4=CC(=O)C=C[C@]4(C)[C@H]3[C@@H](O)C[C@]2(C)[C@@]1(O)C(=O)CO",
    "TARGET DESC": "Progesterone receptor (Homo sapiens, UniProt P06401)",
    "AC50": "5.1 µM"
  },
  {
    "COMPOUND": "N[C@@H](Cc1ccccc1)C(=O)O",
    "TARGET DESC": "Progesterone receptor (Homo sapiens, UniProt P06401)",
    "AC50": "> 30 µM"
  },
  {
    "COMPOUND": "CC[N+](C)(CC)CCOC(=O)C(O)(c1ccccc1)C1CCCCC1 (stereo not given)",
    "TARGET DESC": "Progesterone receptor (Homo sapiens, UniProt P06401)",
    "AC50": "> 30 µM"
  },
  {
    "COMPOUND": "Cc1ncc2c(c1O)COC2c1ccc(Cl)cc1 (stereo not given)",
    "TARGET DESC": "Progesterone receptor (Homo sapiens, UniProt P06401)",
    "AC50": "> 30 µM"
  },
  {
    "COMPOUND": "CCCn1cnc2c1c(=O)n(CCCCC(C)=O)c(=O)n2C",
    "TARGET DESC": "Progesterone receptor (Homo sapiens, UniProt P06401)",
    "AC50": "> 30 µM"
  },
  {
    "COMPOUND": "O=C(O)Cc1ccccc1Oc1ccc(Cl)cc1Cl",
    "TARGET DESC": "Progesterone receptor (Homo sapiens, UniProt P06401)",
    "AC50": "> 30 µM"
  },
  {
    "COMPOUND": "COc1cccc(C(=O)CCN[C@@H](C)[C@H](O)c2ccccc2)c1",
    "TARGET DESC": "Progesterone receptor (Homo sapiens, UniProt P06401)",
    "AC50": "> 30 µM"
  },
  {
    "COMPOUND": "N=C(N)N/N=C/c1c(Cl)cccc1Cl",
    "TARGET DESC": "Progesterone receptor (Homo sapiens, UniProt P06401)",
    "AC50": "> 30 µM"
  },
  {
    "COMPOUND": "CCN(CC)CCCC(C)Nc1c2ccc(Cl)cc2nc2ccc(OC)cc12 (stereo not given)",
    "TARGET DESC": "Progesterone receptor (Homo sapiens, UniProt P06401)",
    "AC50": "> 10 µM"
  },
  {
    "COMPOUND": "CC(CN1c2ccccc2Sc2ccccc21)N(C)C (stereo not given)",
    "TARGET DESC": "Progesterone receptor (Homo sapiens, UniProt P06401)",
    "AC50": "> 30 µM"
  },
  {
    "COMPOUND": "O=C(O)P(=O)(O)O",
    "TARGET DESC": "Progesterone receptor (Homo sapiens, UniProt P06401)",
    "AC50": "> 30 µM"
  },
  {
    "COMPOUND": "C[C@]12C=CC(=O)C=C1CC[C@H]1[C@@H]3C[C@@H](O)[C@](O)(C(=O)CO)[C@@]3(C)C[C@H](O)[C@@]12F",
    "TARGET DESC": "Progesterone receptor (Homo sapiens, UniProt P06401)",
    "AC50": "19.7 µM"
  },
  {
    "COMPOUND": "O=C(O)CN(CCN(CC(=O)O)CC(=O)O)CCN(CC(=O)O)CC(=O)O",
    "TARGET DESC": "Progesterone receptor (Homo sapiens, UniProt P06401)",
    "AC50": "> 30 µM"
  },
  {
    "COMPOUND": "CC[C@@H]1C[C@]1(NC(=O)[C@@H]1C[C@@H]2CN1C(=O)[C@H](C(C)(C)C)NC(=O)OCC(C)(C)CCCCc1cccc3c1CN(C3)C(=O)O2)C(=O)NS(=O)(=O)C1CC1",
    "TARGET DESC": "Progesterone receptor (Homo sapiens, UniProt P06401)",
    "AC50": "> 30 µM"
  },
  {
    "COMPOUND": "CC(OCCN1CCCCCC1)(c1ccccc1)c1ccc(Cl)cc1 (stereo not given)",
    "TARGET DESC": "Progesterone receptor (Homo sapiens, UniProt P06401)",
    "AC50": "> 30 µM"
  },
  {
    "COMPOUND": "COc1ccc(OC)c(C(O)C(C)N)c1 (stereo not given)",
    "TARGET DESC": "Progesterone receptor (Homo sapiens, UniProt P06401)",
    "AC50": "> 30 µM"
  },
  {
    "COMPOUND": "Cc1ccc(C(=O)c2ccc(CC(=O)O)n2C)cc1",
    "TARGET DESC": "Progesterone receptor (Homo sapiens, UniProt P06401)",
    "AC50": "> 30 µM"
  },
  {
    "COMPOUND": "C[C@H](CCC(=O)O)[C@H]1CC[C@H]2[C@@H]3[C@H](O)C[C@@H]4C[C@H](O)CC[C@]4(C)[C@H]3C[C@H](O)[C@]12C",
    "TARGET DESC": "Progesterone receptor (Homo sapiens, UniProt P06401)",
    "AC50": "> 30 µM"
  },
  {
    "COMPOUND": "CC(C)C[C@H](NC(=O)[C@@H](O)[C@H](N)Cc1ccccc1)C(=O)O",
    "TARGET DESC": "Progesterone receptor (Homo sapiens, UniProt P06401)",
    "AC50": "> 30 µM"
  },
  {
    "COMPOUND": "C=C(C)CNc1ccc(C(C)C(=O)O)cc1 (stereo not given)",
    "TARGET DESC": "Progesterone receptor (Homo sapiens, UniProt P06401)",
    "AC50": "> 30 µM"
  },
  {
    "COMPOUND": "CC(C)NC(=N)NC(=N)Nc1ccc(Cl)c(Cl)c1",
    "TARGET DESC": "Progesterone receptor (Homo sapiens, UniProt P06401)",
    "AC50": "> 30 µM"
  },
  {
    "COMPOUND": "CN[C@@H]1[C@H](O[C@H]2[C@H](O[C@H]3[C@H](O)[C@@H](O)[C@H](NC(=N)N)[C@@H](O)[C@@H]3NC(=N)N)O[C@@H](C)[C@]2(O)CO)O[C@@H](CO)[C@H](O)[C@H]1O [DIHYDROSTREPTOMYCIN]",
    "TARGET DESC": "Progesterone receptor (Homo sapiens, UniProt P06401)",
    "AC50": "> 30 µM"
  },
  {
    "COMPOUND": "CCCSc1nc(N[C@@H]2C[C@H]2c2ccc(F)c(F)c2)c2nnn([C@@H]3C[C@H](OCCO)[C@@H](O)[C@H]3O)c2n1",
    "TARGET DESC": "Progesterone receptor (Homo sapiens, UniProt P06401)",
    "AC50": "7.6 µM"
  },
  {
    "COMPOUND": "COC(=O)[C@H]1[C@H]2C[C@@H]3c4[nH]c5cc(OC)ccc5c4CCN3C[C@H]2C[C@@H](OC(=O)c2cc(OC)c(OC)c(OC)c2)[C@@H]1OC",
    "TARGET DESC": "Progesterone receptor (Homo sapiens, UniProt P06401)",
    "AC50": "> 30 µM"
  },
  {
    "COMPOUND": "O=C1Cc2cc(CCN3CCN(c4nsc5ccccc45)CC3)c(Cl)cc2N1",
    "TARGET DESC": "Progesterone receptor (Homo sapiens, UniProt P06401)",
    "AC50": "> 30 µM"
  },
  {
    "COMPOUND": "O=C(NNCS(=O)(=O)O)c1ccncc1 [METHANIAZIDE]",
    "TARGET DESC": "Progesterone receptor (Homo sapiens, UniProt P06401)",
    "AC50": "> 30 µM"
  },
  {
    "COMPOUND": "NNCCc1ccccc1",
    "TARGET DESC": "Progesterone receptor (Homo sapiens, UniProt P06401)",
    "AC50": "> 30 µM"
  },
  {
    "COMPOUND": "CCCCC1C(=O)N(c2ccccc2)N(c2ccc(O)cc2)C1=O (stereo not given) [OXYPHENBUTAZONE ANHYDROUS]",
    "TARGET DESC": "Progesterone receptor (Homo sapiens, UniProt P06401)",
    "AC50": "> 30 µM"
  },
  {
    "COMPOUND": "C#C[C@]1(O)C=C[C@H]2[C@@H]3CCC4=CC(=O)CC[C@@H]4[C@H]3CC[C@@]21CC",
    "TARGET DESC": "Progesterone receptor (Homo sapiens, UniProt P06401)",
    "AC50": "0.003 µM"
  },
  {
    "COMPOUND": "COc1cc(C(C)=O)ccc1OCCCN1CCC(c2noc3cc(F)ccc23)CC1",
    "TARGET DESC": "Progesterone receptor (Homo sapiens, UniProt P06401)",
    "AC50": "> 30 µM"
  }
]
